tested on: RXF 393; assay: NCI tumour cell line growth inhibition, 48 h
Calls of active or inactive are those of the source. Rule as the data show it: active = GI50 up to about 1.1 µM and inactive = higher.
Return exactly one item of yes = active, no = inactive

Assay outcome for `O=C(/C=C/c1ccccc1O)c1cccc2ccccc12` : what was it?
no

Status in this test for `N=C(NC(=S)N1CCCCC1)N1CCCCC1` ?
no

What did the test return for `O=C1NC(=O)[C@H]2C3C=CC([C@@H]12)[C@@H]1C(=O)NC(=O)[C@H]31` ?
no

For `CC(=O)O[C@H]1C#C/C=C\C#CC[C@@H]2C(=O)N[C@@H]12` , what call appears in the results of this test?
no

Hello, I am checking results. What call was entered for `COc1cc(OC)cc(OCc2nc3cc(C(F)(F)F)ccc3nc2-c2ccccc2)c1` ?
no

State the result this test recorded for C=CCOCCCCC(C(C)=O)C(=O)OC (stereo not drawn) .
no

GET /call?item= COc1cc2cc(C(=O)N3CC(COS(C)(=O)=O)c4c3cc([N+](=O)[O-])c3ccccc43)[nH]c2c(OC)c1OC (stereo not drawn) returns the recorded outcome of this test.
no

# outcome recorded in this test, key = CSC1=C(C#N)C(=S)N=C(N)C1C(=O)Nc1ccc(C)cc1 (stereo not drawn)
no

Which result was noted for this compound in the test: `N=C(CSSCC(=N)NCC12CC3CC(CC(C3)C1)C2)NCC12CC3CC(CC(C3)C1)C2`
no

Which outcome was entered for the compound CC1(CC(=O)OC(C#C[Si](C)(C)C)Cc2ccccc2)OCCO1 (stereo not drawn) in this test?
no

Would you mind telling me which call this test gave `CN(C)c1ccc(/N=N/c2ccncc2)cc1` ?
no

What classification did CNc1ccc(C(=O)CC(O)CCC(C)C2OC(=O)CC(O)CC(=O)CC(O)CC(O)CC(O)CC(O)CC3(O)CC(O)C(C(=O)N4CCOCC4)C(CC(OC4OC(C)C(O)C(N)C4O)\C=C/C=C\C=C/C=C/C=C/C=C\C=C/C2C)O3)cc1 (stereo not drawn) end up with in this test?
yes

Which result was noted for this compound in the test: OCC1C(O)C(O)[C@@H]2SCCN12 (stereo partly drawn)
no

Which outcome was assigned to `CCCCSC1=N/C(=C\c2ccc(N(C)C)cc2)C(Cl)=N1` in this test?
no

Test call for this compound, please: `Cc1cc(NS(=O)(=O)c2ccc(NC(=O)c3cccc4c(NNc5ccc(S(=O)(=O)N=C(N)N)cc5)c5ccccc5nc34)cc2)no1`
no

Test call, this compound: `O=C(CCN1CCOCC1)/C(=C/c1ccccc1)c1ccccc1`
no

For COc1cc(C2SC(C)C(=O)N2c2ccc(-c3csc(NS(=O)(=O)c4ccc(Cl)c(OC)c4)n3)cc2)ccc1O (stereo not drawn) , which call appears in the assay record?
no

What did the test return for `CCc1cccc(C)c1NC(=O)NS(=O)(=O)c1ccc(C)cc1` ?
no

Per the assay record, what outcome was assigned to `CC(=O)OCc1cncn1S(=O)(=O)c1ccc(C)cc1` ?
no

Returns: the outcome recorded for O=C(O)c1ccc(C2COc3ccc(Cl)cc3C2)cc1 (stereo not drawn) in this assay.
no

# fetch the recorded call for O=c1c2cc(O)c(O)cc2oc2cc(O)c(C3OC(CO)C(O)C(O)C3O)c(O)c12 (stereo not drawn) here
no

Lab log entry: CCNC(CCCC(NCC)P(=O)(O)O)P(=O)(O)O (stereo not drawn) — outcome as called in the assay?
no

Identify the outcome logged in this assay for the compound shown: `O=C(CCc1ccccc1)n1cccc1CO`
no

Which outcome was entered for the compound `CCOC(=O)C(=O)Nc1ccc(C)c(C)c1` in this test?
no

Test call for this compound, please: C=C1C(=O)OC2C[C@@]3(C)CCCC(=C)C3CC12 (stereo partly drawn)
no

Short answer needed: outcome of this test for `CCc1c(-c2ccc(OC)cc2)oc(OC)c(C)c1=O` ?
no

// return assay outcome for `CN(C)c1n/c(=N/c2ncn[nH]2)ss1`
no

What call does the record list for `O=C(O)c1cc(-c2ccc3c(O)ccc(O)c3c2)ccc1O` ?
no
